Values compiled from patent US20260028389A1.

Target under test: T1, recombinant human KLK5 C-6His (Novoprotein, Catalog No. C415) (human, UniProt Q9Y337 23-293)
T1 construct: Bought protein; also called KLK5 protein (Novoprotein); not shown: C-terminal 6xHis tag ('C-6His')
Experiment: ELISA on captured KLK5 C-6His; binder incubated in human serum, day 7
Endpoint: EC50 (nM)
Write the answer as a number in nM, unit excluded.

Which EC50 reading was recorded for the binder Spink9-236.Fc (SEQ ID NO: 60) (Fc fusion, Mutant SPINK9 domain fused directly to a C-terminal IgG Fc) IECAKQTKQMVDCSHYKKLPPEQQLMCTREYDPICGSDGKTYKNDCFFCSKVKKTDGTLKFVHFGKCEPKSCDKTHTCPPCPAPEAAGGPSVFLFPPKPKDTLMISRTPEVTCVVVDVSHEDPEVKFNWYVDGVEVHNAKTKPREEQYNSTYRVVSVLTVLHQDWLNGKEYKCKVSNKALPAPIEKTISKAKGQPREPQVYTLPPSREEMTKNQVSLTCLVKGFYPSDIAVEWESNGQPENNYKTTPPVLDSDGSFFLYSKLTVDKSRWQQGNVFSCSVLHEALHSHYTQKSLSLSPGK ?
0.1
